Read-out: Interleukin-1 alpha (IL1a), IL1A (gene 3552)
Experiment: BSK_KF3CT_IL1a: BioMAP Diversity Plus: KF3CT Assay for Interleukin-1 alpha (IL1a) Biomarker Activity (AID 2283070)
Settings: primary human keratinocytes with fibroblasts; actives raise or lower the signal
Activity calls are given as the source filed them. The calls were made as follows: active = hit-call score of the fitted dose curve at least 0.9, where 1 is the maximum; inactive = score below 0.9.
Outcome codes: class 1 = active, class 0 = inactive

compound: C=C(C)C(=O)O[C@H]1C[C@@H]2CC[C@@]1(C)C2(C)C
assigned_category: class 1
--
compound: C=C[Si](OCC)(OCC)OCC
assigned_category: class 0
--
compound: CN(CCOc1ccc(CC2SC(=O)NC2=O)cc1)c1ccccn1 (centres undefined)
assigned_category: class 1
--
compound: O=C(O)C[C@H](O)C[C@H](O)/C=C/c1c(C2CC2)nc2ccccc2c1-c1ccc(F)cc1
assigned_category: class 0
--
compound: Cc1ccc(Nc2ccc(O)c3c2C(=O)c2ccccc2C3=O)cc1
assigned_category: class 0
--
compound: Nc1cc([N+](=O)[O-])ccc1O
assigned_category: class 0
--
compound: CC(C)c1ccc(C(C)C)cc1
assigned_category: class 0
--
compound: CC(=O)/C=C/C1=C(C)CCCC1(C)C
assigned_category: class 0
--
compound: CCCCCCCCCC=O
assigned_category: class 0
